assay: chemical genetic growth profiling, strain panel (AID 1159580);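 note: tested at 20 µM; growth read once vehicle control cultures reached saturation at 30 °C; 1 = growth at the plate median or of vehicle wells; lower values mean less growth of the strain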; details: S. cerevisiae deletion strains, growth OD, locus YBL105C, strain PKC1, hits give low values
The campaign covered roughly 5,500 compounds. About 2,000 (36%) were called active. Another 18% or so got no clear call; they are omitted. This is one part of the list.
VALUE_KIND: normalized growth

Some entries whose results are on file:
1) Cc1c(S(=O)(=O)Nc2cccc([N+](=O)[O-])c2)sc2ccc(Cl)cc12 :: 0.973 (inactive)
2) C[C@@H](Nc1ncnc2sc3c(c12)CCCC3)c1ccccc1 :: 0.955 (inactive)
3) CCOC(=O)c1sc(S(C)=NC(=O)Nc2ccc(Cl)cc2)c2c1CCC=C2 (stereo unspecified) :: 0.974 (inactive)

# input Recorded normalized growth of `Clc1ccc(-c2cnc(Nc3cc(Cl)cc(Cl)c3)s2)cc1` , please.
# output 0.63 (active)

# input Which normalized growth value belongs to `Nc1ccccc1C(=O)Nc1cc(C(F)(F)F)cc(C(F)(F)F)c1` ?
# output 0.973 (inactive)

# input Quick one: normalized growth of `CC1=CC(=O)N(c2ccc(F)c(Cl)c2)C1=O` ?
# output 0.974 (inactive)
